Reported residual activity is given for each of the following molecules.
- study-target: Solute carrier organic anion transporter family member 1B1 (Homo sapiens, UniProt Q9Y6L6)
- measurement-context: chinese hamster, cho, 10 µM
Report as a plain number; the unit % is understood.

1) O=C1CCC[C@@H]2[C@H]3C[C@@H](CN12)[C@@H]1CCCCN1C3.[O-][Cl+3]([O-])([O-])O ... 115.5
2) C[C@]12CCC(=O)C=C1C=C[C@@H]1[C@@H]2CC[C@@]2(C)[C@H]1CC[C@@]21CCC(=O)O1 ... 32.01
3) C[C@]12CC[C@H](O)C[C@H]1CC[C@@H]1[C@@H]2[C@H](O)C[C@]2(C)[C@@H](C3=CC(=O)OC3)CC[C@]12O ... 70.58

Prompt: Need residual activity of `Cc1cc(-c2ccccc2)nnc1NCCN1CCOCC1.Cl` , thanks.
Completion: 73.96

Prompt: // returns reported residual activity for input `COc1cccc(/C=C/C(=O)O)c1C(C)C`
Completion: 137.6

Prompt: Dear colleague, I am looking for the recorded residual activity of the following molecule: `O=c1ccc2cc(O)c(O)cc2o1`
Completion: 111.1

Prompt: I would be grateful if you could share the reported residual activity for `Nc1ccc(S(=O)(=O)Nc2ccccn2)cc1` .
Completion: 73.46

Prompt: Requested read-out: residual activity. Entry: `CCCCCCCCCc1ccc(OCCOCCOCCOCCOCCOCCOCCOCCOCCO)cc1`
Completion: 32.74

Prompt: Quick one: residual activity of CC(=O)CC(c1ccccc1)c1c(O)c2ccccc2oc1=O (centres undefined) ?
Completion: 122.2

----------
- study-target: Solute carrier organic anion transporter family member 1B3 (Homo sapiens)
- measurement-context: chinese hamster, cho, 10 µM
observed-property: residual activity (%)
The figure you give is taken to be in %; do not add the unit.

Look over these answered cases.
1) Oc1cc(O)c2c(c1)O[C@H](c1cc(O)c(O)c(O)c1)[C@H](O)[C@H]2c1c(O)cc(O)c2c1O[C@H](c1cc(O)c(O)c(O)c1)[C@H](O)[C@H]2c1c(O)cc(O)c2c1O[C@H](c1cc(O)c(O)c(O)c1)[C@H](O)C2 [KATACINE] ... 99.79
2) CC(C(=O)O)c1cccc(Oc2ccccc2)c1 (configuration not stated) [FENOPROFEN] ... 96.37
3) COc1c(Cl)c(C)c2c(c1Cl)OC(=O)c1c(C)c(Cl)c(OC)c(Cl)c1O2 [DIPLOICIN METHYL ETHER] ... 103.5

Now consider a different compound.
Prompt: Quick one: residual activity of COc1ccc2ccc(=O)oc2c1 [HERNIARIN] ?
Completion: 104.5

----------
- study-target: Solute carrier organic anion transporter family member 1B1 (Homo sapiens)
- Sequence (Q9Y6L6 whole entry): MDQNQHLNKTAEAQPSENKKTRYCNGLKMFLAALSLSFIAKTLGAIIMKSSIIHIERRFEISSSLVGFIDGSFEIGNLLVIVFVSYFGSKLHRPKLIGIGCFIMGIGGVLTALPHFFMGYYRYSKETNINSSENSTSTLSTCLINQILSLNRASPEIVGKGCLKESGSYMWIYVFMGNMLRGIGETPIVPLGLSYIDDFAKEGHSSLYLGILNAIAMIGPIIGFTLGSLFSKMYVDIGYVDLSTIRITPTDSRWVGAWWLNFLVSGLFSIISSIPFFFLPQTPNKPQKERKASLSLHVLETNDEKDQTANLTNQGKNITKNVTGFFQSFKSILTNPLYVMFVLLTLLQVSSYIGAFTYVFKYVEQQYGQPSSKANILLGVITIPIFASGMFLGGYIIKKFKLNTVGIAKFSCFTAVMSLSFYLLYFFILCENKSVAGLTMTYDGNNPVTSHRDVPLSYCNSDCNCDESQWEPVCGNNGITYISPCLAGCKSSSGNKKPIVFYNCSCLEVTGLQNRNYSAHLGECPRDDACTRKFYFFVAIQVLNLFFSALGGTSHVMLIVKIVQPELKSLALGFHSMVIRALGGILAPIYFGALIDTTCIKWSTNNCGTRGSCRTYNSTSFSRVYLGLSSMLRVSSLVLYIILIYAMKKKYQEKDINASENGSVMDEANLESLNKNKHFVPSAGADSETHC
- measurement-context: chinese hamster, cho, 10 µM
observed-property: residual activity (%)
Give the value in % but do not write % after it.

Example entries and their recorded answers appear below.
1) CC[C@@]1(O)C[C@H](O[C@H]2C[C@H](N(C)C)[C@H](O[C@H]3C[C@H](O)[C@H](O[C@H]4CCC(=O)[C@H](C)O4)[C@H](C)O3)[C@H](C)O2)c2c(cc3c(c2O)C(=O)c2c(O)cccc2C3=O)[C@H]1C(=O)OC [ACLARUBICIN] ... 95.52
2) CC(C)(O)CC[C@@H](O)[C@](C)(O)[C@H]1CC[C@@]2(O)C3=CC(=O)[C@@H]4C[C@@H](O)[C@@H](O)C[C@]4(C)[C@H]3CC[C@]12C [20-HYDROXYECDYSONE] ... 115
3) O=c1[nH]cc(F)c(=O)[nH]1 [FLUOROURACIL] ... 86.84
4) O=C(O)c1cc2ccccc2c(Cc2c(O)c(C(=O)O)cc3ccccc23)c1O.OCCOCCN1CCN(C(c2ccccc2)c2ccc(Cl)cc2)CC1 [HYDROXYZINE PAMOATE] ... 12.16
5) COc1cccc2c1CCC1=CC(=O)CC[C@@]12C ... 143.1
6) CN(C)CCc1c[nH]c2ccc(C[C@H]3COC(=O)N3)cc12 [ZOLMITRIPTAN] ... 95.98
7) CC(=O)O[C@@H]1c2c(ccc3ccc(=O)oc23)OC(C)(C)[C@@H]1OC(=O)CC(C)C [DIHYDROSAMIDIN] ... 75.05

Next compound, please.
Prompt: What does the record list as residual activity for `O=C(Nc1ccccc1)Nc1ccccc1` ?
Completion: 86.66

----------
Each record here notes measured residual activity.
- study-target: Solute carrier organic anion transporter family member 1B3 (Homo sapiens)
- Sequence (Q9NPD5 whole entry): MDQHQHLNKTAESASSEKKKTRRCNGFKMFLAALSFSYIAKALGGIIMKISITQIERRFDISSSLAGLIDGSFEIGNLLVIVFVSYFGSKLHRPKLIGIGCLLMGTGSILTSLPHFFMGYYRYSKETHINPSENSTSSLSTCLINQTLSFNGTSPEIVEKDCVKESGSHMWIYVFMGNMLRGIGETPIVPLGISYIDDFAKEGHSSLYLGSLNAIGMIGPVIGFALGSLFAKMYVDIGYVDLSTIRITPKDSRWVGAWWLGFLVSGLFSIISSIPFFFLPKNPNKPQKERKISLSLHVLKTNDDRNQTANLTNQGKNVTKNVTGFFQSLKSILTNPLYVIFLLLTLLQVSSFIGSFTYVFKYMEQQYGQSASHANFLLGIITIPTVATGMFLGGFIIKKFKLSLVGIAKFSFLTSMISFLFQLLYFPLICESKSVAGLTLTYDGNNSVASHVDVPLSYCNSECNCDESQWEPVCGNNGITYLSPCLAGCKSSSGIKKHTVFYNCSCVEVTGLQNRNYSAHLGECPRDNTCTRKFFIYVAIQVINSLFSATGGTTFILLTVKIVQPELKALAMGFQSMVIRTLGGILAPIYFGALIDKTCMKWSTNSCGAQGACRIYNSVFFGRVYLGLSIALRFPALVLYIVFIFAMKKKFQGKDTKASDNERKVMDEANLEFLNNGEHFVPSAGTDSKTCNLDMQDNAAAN
- measurement-context: chinese hamster, cho, 10 µM
A number alone suffices; assume %.

Example results:
1. O=C(O)[C@]1(O)C[C@@H](O)[C@@H](O)[C@H](O)C1 [QUINIC ACID] ... 98.01
2. Cc1cc(NC(=O)C2=C(O)c3ccccc3S(=O)(=O)N2C)no1 [ISOXICAM] ... 86.6
3. CO[C@H]1C[C@H](O[C@@H]2/C(C)=C/C[C@@H]3C[C@@H](C[C@]4(CC[C@H](C)[C@@H](C5CCCCC5)O4)O3)OC(=O)[C@@H]3C=C(C)/C(=N/O)[C@H]4OC/C(=C\C=C\[C@@H]2C)[C@]43O)O[C@@H](C)[C@@H]1O [SELAMECTIN] ... 93.37
4. O=C1CCC(N2C(=O)c3ccccc3C2=O)C(=O)N1 (configuration not stated) [THALIDOMIDE] ... 101
5. CN[C@@H]1[C@@H](O)[C@@H](O[C@@H]2[C@@H](O)[C@H](O[C@H]3O[C@H]([C@@H](C)O)[C@@H](O)[C@H](O)[C@H]3N)[C@@H](N)C[C@H]2N)OC[C@]1(C)O [GENETICIN] ... 105.6

Prompt: For Solute carrier organic anion transporter family member 1B3 (Homo sapiens), provide residual activity of CN(C)CCOC(=O)C(c1ccccc1)C1(O)CCCC1.Cl (configuration not stated) [CYCLOPENTOLATE HYDROCHLORIDE] please.
Completion: 100.2

Prompt: residual activity of `COc1cc(OC)c2c(c1Cl)O[C@@]1(C(=O)CC(=O)C[C@H]1C)C2=O` on Solute carrier organic anion transporter family member 1B3 (Homo sapiens)?
Completion: 85.63

FYI, the data here is from ChEMBL document CHEMBL3039007.
